These entries and their values trace back to patent US8377974B2.

# target system: human plasma protein factor Xa (Homo sapiens, UniProt P00742)
# Construct: measure proteolytic activity of the enzyme (factor Xa)
# Sequence (P00742 235-488 limits assumed): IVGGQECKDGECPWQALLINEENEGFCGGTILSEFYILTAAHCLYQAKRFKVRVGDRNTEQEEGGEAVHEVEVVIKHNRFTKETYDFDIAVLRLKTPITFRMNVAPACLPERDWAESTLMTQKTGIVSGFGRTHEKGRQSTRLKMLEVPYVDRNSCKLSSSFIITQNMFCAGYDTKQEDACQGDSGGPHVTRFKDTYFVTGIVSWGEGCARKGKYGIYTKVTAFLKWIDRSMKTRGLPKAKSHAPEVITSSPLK
# Sequence (P00742 41-179 partner limits assumed): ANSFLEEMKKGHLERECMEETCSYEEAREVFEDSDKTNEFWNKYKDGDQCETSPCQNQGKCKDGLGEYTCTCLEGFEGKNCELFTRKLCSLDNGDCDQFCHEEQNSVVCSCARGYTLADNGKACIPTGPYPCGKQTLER
# assay overview: Factor Xa IC50 determination: cleavage of paranitroanilide substrate S-2765 in 96-well plates
# test settings: fXa 1 nM, S-2765 100 μM, Tris buffered saline pH 7.4, room temperature
For each of the molecules below, state its IC50.

human plasma protein factor Xa (Homo sapiens, UniProt P00742) / IC50 / CCN(C)C(=N)c1ccc(-c2cc(CNC(=O)c3ccc(Cl)s3)on2)cc1 [Example 28] : value?
≤ 0.1 µM

Then this molecule: N=C(c1ccc(C2=NOC(CNC(=O)c3ccc(Cl)s3)C2)c(OC2CCCC2)c1)N1CCCC1 (stereo not shown) [Example 114]
≤ 0.1 µM

How about CN(Cc1cc(-c2ccc(C(=N)N3CCC(C(N)=O)CC3)cc2)no1)C(=O)c1ccc(Cl)s1 [Example 45] ?
≥ 0.5 µM

Again, but for N=C(c1ccc(-c2cncc(CNC(=O)c3ccc(Cl)s3)c2)cc1)N1CCCC1 [Example 372]
≤ 0.1 µM

Query CN(C)C(=N)c1ccc(-c2noc(CNC(=O)c3ccc(Cl)s3)n2)cc1 [Example 334] next
≤ 0.1 µM

# repeat for O=C(NCc1cn(-c2ccc(-n3ccccc3=O)cc2)nn1)c1ccc(Cl)s1 [Example 290]
≤ 0.1 µM

Record: O=C(NCc1cc(-c2ccc(-c3ccc(CN4CCCC4)cc3)cc2)no1)c1ccc(Cl)s1 [Example 214]
≥ 0.5 µM

Moving on to the next molecule: CN1CCN=C1c1ccc(-c2csc(CNC(=O)c3ccc(Cl)s3)n2)cc1 [Example 361]
≥ 0.5 µM

Item: COc1cccn(-c2ccc(-n3cc(CNC(=O)c4ccc(Cl)s4)nn3)cc2)c1=O [Example 294]
≤ 0.1 µM

Can you check CN(Cc1cc(-c2ccc(C(=N)N3CCC3)cc2)no1)C(=O)c1ccc(Cl)s1 [Example 40] next?
≥ 0.5 µM

Now try COC(=O)c1ccc(Nc2ccc(C3=NOC(CNC(=O)c4ccc(Cl)s4)C3)cc2)cc1 (stereo not shown) [Example 262] .
≥ 0.5 µM

Moving on to the next molecule: O=C(NCc1cc(-c2ccc(NCc3ccccc3)cc2)no1)c1ccc(Cl)s1 [Example 258]
≥ 0.5 µM

Follow-up item: O=C(NCC1CC(c2cccc(-c3cccnc3)c2)=NO1)c1ccc(Cl)s1 (stereo not shown) [Example 274]
≥ 0.5 µM

Another molecule to look at: COc1ccccc1-c1ccc(C2=NOC(CNC(=O)c3ccc(Cl)s3)C2)cc1 (stereo not shown) [Example 188]
0.1 to 0.5 µM

Consider next the molecule N=C(c1ccc(-n2cc(CNC(=O)c3ccc(Cl)s3)cn2)cc1)N1CCC1 [Example 327] in the same way.
≤ 0.1 µM

And the next one, CN(C)C(=N)c1ccc(-c2csc(CNC(=O)c3ccc(Cl)s3)n2)cc1 [Example 360] ?
≥ 0.5 µM

Input CN(C)Cc1ccc(-c2cccc(-c3cc(CNC(=O)c4ccc(Cl)s4)on3)c2)cc1 [Example 272]
≥ 0.5 µM

Next record, please: N=C(c1ccc(-c2cc(CNC(=O)c3ccc(Cl)s3)on2)cc1)N1CCCCC1 [Example 24]
≤ 0.1 µM

Next: CN1CCN=C1c1ccc(C2=NOC(C)(CNC(=O)c3ccc(Cl)s3)C2)cc1 (stereo not shown) [Example 58]
≤ 0.1 µM

Thanks! And Nc1ccccc1-c1ccc(C2=NOC(CNC(=O)c3ccc(Cl)s3)C2)cc1 (stereo not shown) [Example 186] ?
0.1 to 0.5 µM

Also CN(C)C(=N)c1ccc(C2=NOC(CNC(=O)c3ccc(Cl)s3)C2)c(N2CCOCC2)c1 (stereo not shown) [Example 82] , if possible.
≤ 0.1 µM

Now this one: O=C(NCC1CC(c2ccc(Nc3ccncc3)cc2F)=NO1)c1ccc(Cl)s1 (stereo not shown) [Example 247]
≤ 0.1 µM

Thanks! And CN(C)C(=N)c1ccc(-c2cccc(CNC(=O)c3ccc(Cl)s3)c2)cc1 [Example 380] ?
≤ 0.1 µM

What about CN(C)C(=N)c1ccc(-c2cc(CNC(=O)c3ccc(Cl)s3)on2)c(N2CCOCC2)c1 [Example 98] ?
≤ 0.1 µM

One more molecule: O=C(NCc1cn(-c2ccc(N3CCOCC3=O)cc2)nn1)c1ccc(Cl)s1 [Example 301]
≤ 0.1 µM

Repeat for the following molecule: N=C(c1ccc(-c2cc(CNC(=O)c3ccc(Cl)s3)on2)c(F)c1)N1CCCC1 [Example 71]
≤ 0.1 µM

What would you report for C#CCN(C)C(=N)c1ccc(-c2cc(CNC(=O)c3ccc(Cl)s3)on2)cc1 [Example 33] ?
0.1 to 0.5 µM

And the next one, O=C(NCC1CC(c2ccc(N3CCOCCC3=O)cc2F)=NO1)c1ccc(Cl)s1 (stereo not shown) [Example 249] ?
≥ 0.5 µM

Please do the same for CN1CCN=C1c1ccc(-c2ccc(F)c(CNC(=O)c3ccc(Cl)s3)c2)cc1 [Example 375] as well.
≤ 0.1 µM

Also O=C(NCC1CC(c2ccc(N3CCOCC3=O)cc2)=NO1)c1ccc(Cl)s1 (stereo not shown) [Example 243] ?
≤ 0.1 µM

Same question for CC(C)Oc1cc(C(=N)N(C)C)ccc1C1=NOC(CNC(=O)c2ccc(Cl)s2)C1 (stereo not shown) [Example 109] please.
≤ 0.1 µM

Then CCOc1cc(Nc2ccc(C3=NOC(CNC(=O)c4ccc(Cl)s4)C3)cc2)ccn1 (stereo not shown) [Example 401] ?
≤ 0.1 µM

Next entry: CN(C)C(=N)c1ccc(-c2nc(CNC(=O)c3ccc(Cl)s3)co2)cc1 [Example 338]
≤ 0.1 µM

Again, but for CN(Cc1ccco1)C(=N)c1ccc(-c2nc(CNC(=O)c3ccc(Cl)s3)cs2)cc1 [Example 356]
≥ 0.5 µM
